experiment.notes: In vivo pharmacokinetic study in rats, IV and PO dosing (Example 6)
condition.info: plasma; rat, 200 mg/kg IV, mean
Structures can show the parent of a compound that is named as a salt.
property: AUC(0-inf) (µg·h/mL)
Answers are plain numbers, in µg·h/mL.

{"compound": "[2H]C([2H])(O)CC([2H])([2H])C(=O)[O-].[Na+] [IV-b, sodium salt, Sodium 2,2,4,4-d4-4-hydroxybutanoate]", "AUC(0-inf) / µg·h/mL": 651}
{"compound": "O=C(O)CCCO [4-hydroxybutyric acid, sodium salt, sodium salt of 4-hydroxybutyric acid, reference compound]", "AUC(0-inf) / µg·h/mL": 427}

INPUT: Could you share which AUC(0-inf) value was measured for [2H]C([2H])(CCO)C(=O)[O-].[Na+] [sodium 2,2-dideutero-4-hydroxybutanoate] ?
OUTPUT: 476
